Tested on: DU-145 prostate
experiment: NCI-60 one-dose screen, 48 h (100 = growth as untreated, 0 = no growth, -100 = all killed)
measurement-parameters: 10 µM unless noted
This is part of a sample that, as a whole, favours compounds with a hit. Of some 83,000 tested, about 20% had one in any assay.
quantity-name: growth (%)
# unit: % | format: bare number

Here are 4 compounds together with their reported answers.
>>> readout_number("Nc1c(C(=O)Nc2cccc(C(F)(F)F)c2)sc2nc3c(cc12)CCCCCC3")
20.8
>>> readout_number("Cc1ccc(C2=NN(c3ccc(S(=O)(=O)NC(=O)NCc4ccccc4)cc3)C(c3ccc(N(C)C)cc3)C2)c(C)c1 (stereo unspecified)")
82.7
>>> readout_number("COc1ccc(-n2c(C)cc(-c3ccccc3)c2C)cc1")
73.9
>>> readout_number("CCOC(=O)c1cc(/C(=N\\O)c2cc(OC)c(OC)c(OC)c2)n2cc(C)cc(C)c12")
41.9

*Q* Give growth (DU-145 prostate) of the following compound: Nc1ccccc1C#C/C=C\C#Cc1cccc(O)c1
*A* 73.1

*Q* Give growth (DU-145 prostate) of the following compound: O=S(=O)(c1ccccc1)n1ccc(-c2ccc3c(c2)CCO3)n1
*A* 95

*Q* Give growth (DU-145 prostate) of the following compound: NC(CC(N)C(=O)O)C(=O)O (stereo unspecified)
*A* 115

*Q* Give growth (DU-145 prostate) of the following compound: O=C(/C=C/CN1CCCCC1)Nc1cc2c(Nc3ccc(F)c(Cl)c3F)ncnc2cc1OCCOC(F)F
*A* 17.6

*Q* Give growth (DU-145 prostate) of the following compound: O=C(CN1CCN(c2cc3c(cc2F)c(=O)c(C(=O)O)cn3C2CC2)CC1)Nc1ccc(C(=O)/C=C/c2ccc(Cl)cc2)cc1
*A* 120

*Q* Give growth (DU-145 prostate) of the following compound: COc1ccc2c(c1)C(=O)/C(=C/c1ccc(O)cc1)O2
*A* 109

*Q* Give growth (DU-145 prostate) of the following compound: N#CC1=C(N)OC2=C(C(=O)CCC2)C1c1ccco1 (stereo unspecified)
*A* 108
